- Experiment Summary: Single-dose (Day 1) pharmacokinetics of Compound tablets, first-time-in-human study
- Conditions Used: human, plasma, po, 2.5 mg, Tmax, single dose Day 1, oral tablets, fasting, 2.5 mg, median (range)
Metric Name: Tmax

>>> df
                                   compound  meas_value
0  CC(=O)Nc1cccc(-n2c(=O)n(C3CC3)c(=O)c3c(Nc4ccc(I)cc4F)n(C)c(=O)c(C)c32)c1 [Compound]    1 to 2 h

----------
- Experiment Summary: Single-dose (Day 1) pharmacokinetics of Compound tablets, first-time-in-human study
- Conditions Used: human, plasma, po, 6 mg, AUC (0-24), Day 1, oral tablets, fasting, 6.0 mg loading dose, mean (CV %) and range
Metric Name: AUC(0-t)

>>> print(df.to_string())
                               smiles_input  metric_name           meas_value
0  CC(=O)Nc1cccc(-n2c(=O)n(C3CC3)c(=O)c3c(Nc4ccc(I)cc4F)n(C)c(=O)c(C)c32)c1     AUC(0-t)  96.7 to 320 ng·h/mL

----------
- Experiment Summary: Single-dose (Day 1) pharmacokinetics of Compound tablets, first-time-in-human study
- Conditions Used: human, plasma, po, 4 mg, Cmax, single dose Day 1, oral tablets, fasting, 4.0 mg, mean (CV %) and range
Metric Name: Cmax

                               smiles_input          meas_value
0  CC(=O)Nc1cccc(-n2c(=O)n(C3CC3)c(=O)c3c(Nc4ccc(I)cc4F)n(C)c(=O)c(C)c32)c1  16.3 to 34.2 ng/mL

----------
- Experiment Summary: Single-dose (Day 1) pharmacokinetics of Compound tablets, first-time-in-human study
- Conditions Used: human, plasma, po, 1 mg, Cmax, single dose Day 1, oral tablets, fasting, 1.0 mg, individual values
Metric Name: Cmax (ng/mL)

>>> print(df.to_string())
                               smiles_input  metric_name  quantity_unit  meas_value
0  CC(=O)Nc1cccc(-n2c(=O)n(C3CC3)c(=O)c3c(Nc4ccc(I)cc4F)n(C)c(=O)c(C)c32)c1         Cmax          ng/mL        1.71

----------
- Experiment Summary: Single-dose (Day 1) pharmacokinetics of Compound tablets, first-time-in-human study
- Conditions Used: human, plasma, po, 10 mg, Tmax, Day 1, oral tablets, fasting, 10.0 mg loading dose, median (range)
Metric Name: Tmax

In [3]: df
Out[3]:
                               smiles_input  meas_value
0  CC(=O)Nc1cccc(-n2c(=O)n(C3CC3)c(=O)c3c(Nc4ccc(I)cc4F)n(C)c(=O)c(C)c32)c1    1 to 2 h
